Taken from ChEMBL document CHEMBL4513216.

Exercise: state measured INHIBITION for each of the compounds provided.
system: Plasmodium berghei; test: Screen against P. berghei liver stage (PbLuc), transformed with Luciferase, at 10uM; format: functional, HepG2; conditions: tested at 10 uM
In all, about 69,000 compounds went through this assay and about 8,600 (12%) showed an effect of 50% or more. This is one part of a sample in which strong results are shown more often than they occur.
Hi, when you answer, please include the unit after the number. Thanks!

Answered cases to consult:
INSERT INTO assay_data (cpd_smiles, measured_result) VALUES
  ('Clc1ccc(OCCCN2CCN(c3cnccn3)CC2)cc1', '54.4%'),
  ('O=C(CCN1CCN(c2ccc3nncn3n2)CC1)N1CCCCC1', '-19.9%'),
  ('O=C(c1ccoc1)N1CCC(O)(C(F)(F)F)CC1', '30%'),
  ('Cc1cc(C)nc(CN(C)c2nc(C3CCCC3)nc3c2cnn3C)c1', '0.87%'),
  ('Cc1c[nH]c(CN(C)c2nc(C3CCCC3)nc3c2cnn3C)n1', '60.1%'),
  ('Cc1ccc2cc(C3(O)CCN(C(=O)CN4CCCC4)CC3)ccc2n1', '-9.67%');

Batch request: INHIBITION for each of the following compounds.
1. Cc1ccc2cc(C(=O)N3CCN(C(=O)N(C)C)CC3)ccc2n1
2. O=C(COc1ccc(Cl)cc1)N1CCN(c2cnccn2)CC1
3. Cc1ccc2cc(C(=O)N3CCC(O)(C(F)(F)F)CC3)ccc2n1
4. Cc1nn(C)c(C)c1CN(C)c1nc(C2CCCC2)nc2c1cnn2C

["70.3%", "-126%", "51.7%", "42.6%"]

Write down INHIBITION measured for item Cc1ccc2cc(C3(O)CCN(C)CC3)ccc2n1
-12.1%

###

system: Plasmodium berghei; assay: Screen against P. berghei liver stage (PbLuc), transformed with Luciferase, at 10uM; assay type: functional, HepG2; conditions: tested at 10 uM
Screen size: about 69,000 compounds; about 8,600 (12%) showed an effect of 50% or more. The entries come from a sample that favours strong results as a whole.
Hi! Just check whether INHIBITION is below 30%. Below gives Fulfilled, equal or above gives Not fulfilled.

Use the examples below as a reference point.
INSERT INTO measurements (compound, discrete_label) VALUES
  ('O=C(NCCn1ccc(-c2ccncc2)n1)C1CC1', 'Not fulfilled'),
  ('Cc1cc(C[S+]([O-])Cc2ccccc2F)no1 (stereo not given)', 'Not fulfilled'),
  ('O=C(NC1CCCC1)c1ccc(C2CCCNC2)nc1 (stereo not given)', 'Fulfilled'),
  ('CC(C)(C)C(=O)NCCn1ccc(-c2ccncc2)n1', 'Fulfilled'),
  ('Cc1cnn(CC2CN(c3nc4ccccc4o3)CCO2)c1 (stereo not given)', 'Not fulfilled');

INHIBITION under 30%? Item: COCCOc1ccc(NC(=O)C2CC(=O)N(C3CC3)C2)cn1 (stereo not given)
Fulfilled

INHIBITION under 30%? Item: CNC(=O)c1cc(C)n(-c2cccc(OC)c2)c1C
Fulfilled

INHIBITION under 30%? Item: Cc1ccnc(C2(C)CCCN2S(=O)(=O)c2ccccc2)n1 (stereo not given)
Not fulfilled

INHIBITION under 30%? Item: Cc1cc(C(=O)N(C)C)nc(C2(C)CCCN2c2ccnc(C)n2)n1 (stereo not given)
Fulfilled
